FYI, the data here is from paper PMC12040169.

Each entry below lists one item and its recorded viability at 28.5 h, 10 µM value.
# protocolDescription: in vitro
# conditionSet: human, hela cells, % viability
Unit % implied. Number only.

Examples from the recorded data:
Cc1nc(NC(=N)Nc2ccccc2C(F)(F)F)[nH]c(=O)c1Cc1ccccc1 ... 99.8
CCc1n[nH]c(C(=O)NCC(c2ccc(F)cc2)N2CCCC2)c1C (centres unmarked) ... 85.8
Cc1ccc(C(=O)NCCCNC(=O)c2ccncc2)cc1 ... 86

Query: // lookup viability at 28.5 h, 10 µM for CN1CC(=O)N2CCOC(C2)c2cccc(n2)NC(=O)C/C=C/CC2(CCN(c3ncccn3)CC2)C1=O (centres unmarked)
Reply: 95.2

Query: Record: COC(=O)c1cc(C#N)c(=O)n(CC(=O)N(C)Cc2ccsc2)c1
Reply: 115
